Examples of binders with documented koff follow.
target or test system: T1, human CD8A-Fc (in house) (human, UniProt P01732 22-182, limits assumed)
T1 construct: captured by goat anti-human Fc on the ProteOn chip; also called hCD8A-Fc; recombinant human CD8 alpha; not shown: linker/tag and Fc of human IgG1
T1 sequence (P01732 22-182 limits assumed): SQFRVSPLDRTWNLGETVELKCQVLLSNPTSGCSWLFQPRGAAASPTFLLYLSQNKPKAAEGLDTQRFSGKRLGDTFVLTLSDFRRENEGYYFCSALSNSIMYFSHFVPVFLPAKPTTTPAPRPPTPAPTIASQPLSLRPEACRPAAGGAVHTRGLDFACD
test details: SPR (ProteOn), captured hCD8A-Fc
The answer is to be given in s⁻¹; state only the numeric part.

Completed entries (count: 3):
P283HR7P1368_G11 (designed binder, FN3 domain) LPAPKNLVVSRVTEDSARLSWTAPDAAFDSFGIGYAEPAVTGEAISLSVPGSERSYDLTGLKPGTEYWVVIIGVKGGINSYPLGASFTT; 0.000373
P283BR9P1363_G2 (designed binder, FN3 domain) LPAPKNLVVSRVTEDSARLSWPKNQTNRHFDSFLIQYQESEKVGEAIVLTVPGSERSYDLTGLKPGTEYTVSIYGVDVKWEGNRPVASNPLSAIFTT; 0.000122
P283HR7P1368_D2 (designed binder, FN3 domain) LPAPKNLVVSRVTEDSARLSWTAPDAAFNSFGIGYAEPAVTGEAISLSVPGSERSYDLTGLKPGTEYWVVIIGVKGGINSYPLGASFTT; 0.0013

Problem: For the binder P283HR7P1368_C3 (designed binder, FN3 domain) LPAPKNLVVSRVTEDSARLSWTAPDAAFDSFGIGYAEPAVTGEAISLSVPGSKRSYDLTGLKPGTEYWVVIIGVKGGINSYPLGASFTT , what koff is on record?
Result: 0.000349
